- Measurement target: Homeobox protein Hox-A13 (Mus musculus) (UniProt Q62424)
- Sequence (Q62424 whole entry, looked up): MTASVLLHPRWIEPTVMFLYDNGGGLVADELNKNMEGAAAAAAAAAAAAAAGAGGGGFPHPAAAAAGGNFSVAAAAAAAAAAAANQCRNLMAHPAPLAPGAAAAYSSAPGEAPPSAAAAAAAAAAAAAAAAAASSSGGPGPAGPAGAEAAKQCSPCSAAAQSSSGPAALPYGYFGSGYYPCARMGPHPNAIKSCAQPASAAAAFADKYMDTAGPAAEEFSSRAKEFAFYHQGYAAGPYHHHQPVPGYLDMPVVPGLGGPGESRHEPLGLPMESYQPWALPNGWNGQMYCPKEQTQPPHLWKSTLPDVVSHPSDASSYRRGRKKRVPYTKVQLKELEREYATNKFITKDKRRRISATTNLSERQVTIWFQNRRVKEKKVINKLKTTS
- Assay name: disruptors of Hoxa13 oligonucleotide interaction – biochemical, fluorescence polarization, labeled oligonucleotide, primary screen (AID 1185)
- Conditions used: Hoxa13:DNA binding, 15 min, higher = more signal, called active from +8 up or from −8 down
Catalogue of z-score readings, one per entry.
Write the value as a bare number.

Completed entries (count: 3):
{"columns": ["Molecule", "z-score"],
 "data": [
  ["CN(C)C(=O)[C@@]1(CCC(=O)OC(C)(C)C)N=C(c2ccc(OCCCO)cc2)O[C@H]1c1ccccc1N=[N+]=[N-]", -5.33],
  ["OCCCC1=CC(c2cccs2)N(Cc2cccc(OC(F)(F)F)c2)CC1 (configuration not stated)", -2.9],
  ["C=CCN1C(=O)[C@@]2(O[C@@H](CCO)[C@H]([Si](C)(C)c3ccc(OC)cc3)[C@H]2C)c2cc(NC(=O)[C@H](C)O)ccc21", -5.68]
]}

Query: Please give the measured z-score for this molecule: CC(C)=CCCC(C)=CC(O)C1C=CC2C(=O)N(c3ccccc3)C(=O)C2N1Nc1ccc([N+](=O)[O-])cc1 (configuration not stated)
Reply: -4.57

Query: How about this molecule: COC(=O)C(CC#Cc1ccc2c(c1)[C@]1(C(=O)N2)[C@H](c2ccc(OCCO)cc2)N2[C@H](c3ccccc3)[C@H](c3ccccc3)OC(=O)[C@H]2[C@@H]1C(=O)O)C(=O)OC
Reply: -5.67

Query: How about this molecule: COc1ccc([Si](C)(C)[C@H]2[C@H](CCO)O[C@@]3(C(=O)N(Cc4cccc(N5CCOC5=O)c4)c4ccccc43)[C@@H]2C)cc1
Reply: -4.21

Query: How about this molecule: C[N+](C)(C)CCCC[C@@H]1NC(=O)[C@@H]2C[C@H](C(=O)O)[C@H](c3cccc(OCCO)c3)N2C1=O
Reply: -3.69

---

- Assay name: compound effects on differentiated 3T3-L1 adipocyte viability – cell-based, 3T3-L1 adipocytes, calcein-AM fluorescence, 48 h, basal, profiling panel (AID 1163); note: test concentration not given here
- Conditions used: 3T3-L1 adipocytes viability, higher = more signal
Readout: z-score
Write the value as a bare number.

{"columns": ["Molecule", "z-score"],
 "data": [
  ["CCCNC(=O)[C@@H]1c2ccccc2C(=O)N(CC23CC4CC(CC(C4)C2)C3)[C@H]1c1ccc(CO)cc1", 0.487],
  ["COCCOC(=O)N1C(=O)[C@@]2(c3cc(C#CC4(O)CCCCCC4)ccc31)[C@H](C(=O)N1CCc3cc(OC)c(OC)cc3C1)[C@H]1C(=O)O[C@H](c3ccccc3)[C@H](c3ccccc3)N1[C@@H]2c1ccccc1OCCO", 1.59],
  ["Cc1ccc(F)cc1S(=O)(=O)N[C@@H]1CCN(C(=O)c2ccc(OC(C)C)cc2)C1", -1.39],
  ["COC(=O)[C@@]1(Cc2ccc(OC)cc2)[C@H]2c3cc(C(=O)N(C)C)n(Cc4cc(C)n(C)n4)c3C[C@H]2CN1C(=O)c1ccccc1", 0.336]
]}

Query: Please give the measured z-score for this molecule: CC(C)C[C@H]1NC(=O)[C@H](C)NC(=O)[C@@]23C(=O)N[C@@H](Cc4ccccc4)C2[C@H](C)[C@@]2(C)O[C@H]2C3/C=C/C/C=C\CNC1=O (some centres not stated)
Reply: 0.392

Query: How about this molecule: C#CCOC(=O)N[C@H](C=CCCCC)c1ccccc1
Reply: -0.115

Query: How about this molecule: CC1(C)[C@@H]2CC(C(O)C3C=CC4C(=O)N(c5ccccc5)C(=O)C4N3Nc3ccccc3F)=C[C@@H]1C2 (some centres not stated)
Reply: -0.297

---

- System: Noggin (protein binding on small-molecule microarray)
- Assay name: small molecules binding Noggin protein – biochemical, 635/667 nm fluorescence, primary screen (AID 1095);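 note: score merges 667 nm feature fluorescence with signal to noise over triplicate slides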
- Conditions used: 635 nm fluorescence, higher = more signal
Readout: composite z-score
Write the value as a bare number.

{"columns": ["Compound", "Recorded result"],
 "data": [
  ["COc1ccccc1CN1C(=O)c2ccccc2[C@@]2(Cc3ccccc3N(C3CC3)C2=O)[C@@H]1c1ccc(CO)cc1", -0.2],
  ["COC(=O)[C@H]1N=C(c2ccc(OCCCO)cc2)O[C@H]1c1ccccc1CN=[N+]=[N-]", -0.0277],
  ["CC(C)N1CC=CC23O[C@@H]4C=CCOC(=O)[C@@H]4[C@H]2C(=O)N(CCCCCCO)[C@@H]3C1=O (stereo partly drawn)", -0.627],
  ["CN(C)C(=O)[C@@]1(Cc2ccccc2N=[N+]=[N-])N=C(c2ccc(OCCCO)cc2)O[C@H]1c1ccccc1N=[N+]=[N-]", 0.126],
  ["[N-]=[N+]=Nc1ccccc1C[C@]1(C(=O)NCCN2CCOCC2)N=C(c2ccc(OCCCO)cc2)O[C@H]1c1ccccc1N=[N+]=[N-]", 0.708],
  ["COC(=O)[C@@]1(Cc2ccccc2)[C@H]2c3cc(C(=O)N4CCCC4)n(CCO)c3C[C@H]2CN1C(=O)c1ccccc1", 0.815],
  ["O=C1C2C=CC(C(O)c3cccc4ccccc34)N(Nc3ccccc3)C2C(=O)N1c1ccccc1 (stereo not drawn)", 0.428]
]}

From here, focus on the item given below.
Query: Please give the measured composite z-score for this compound: COCCCNC(=O)[C@@]1(Cc2ccccc2N=[N+]=[N-])N=C(c2ccc(OCCCO)cc2)O[C@H]1c1ccccc1CN=[N+]=[N-]
Reply: -0.0194

---

- Tested on: Fibrinogen (Alexa647-labelled)
- Assay name: Alexa647-fibrinogen binding to printed small molecules – biochemical, small-molecule microarray, 635/667 nm fluorescence, artefact control for SMM control-protein annotation, profiling panel (AID 1131);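 note: z-score merges 667 nm fluorescence with per-spot signal-to-noise over triplicate slides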
- Conditions used: fibrinogen-A647 binding fluorescence, higher = more signal
Catalogue of composite z-score readings, one per entry.
Write the value as a bare number.

Completed entries (count: 3):
{"columns": ["Compound", "Measurement target", "composite z-score"],
 "data": [
  ["CCCCC=C[C@@H](NC(=O)CCc1ccccc1)c1ccccc1", "Fibrinogen (Alexa647-labelled)", 0.939],
  ["Cc1ccc(S[C@]2(C(=O)NCC(C)C)CC(=O)N(C3CCCCC3)[C@@H]2c2ccc(CO)cc2I)cc1", "Fibrinogen (Alexa647-labelled)", 0.166],
  ["CC(C)C[C@H]1NC(=O)[C@H](C)NC(=O)[C@@]23C(=O)N[C@@H](Cc4ccccc4)C2[C@H](C)[C@@]2(C)O[C@H]2C3/C=C/C/C=C\\CNC1=O (some centres undefined)", "Fibrinogen (Alexa647-labelled)", -1.65]
]}

Query: Please give the measured composite z-score for this compound: COCCOC(=O)N1C(=O)[C@@]2(c3cc(C#Cc4ccc(OC)cc4)ccc31)[C@H](C(=O)N1CCc3cc(OC)c(OC)cc3C1)[C@H]1C(=O)O[C@H](c3ccccc3)[C@H](c3ccccc3)N1[C@@H]2c1ccc(OCCO)cc1
Reply: 0.195

---

- Measurement target: Epidermal growth factor receptor (Homo sapiens)
- Assay name: compounds binding epidermal growth factor receptor – biochemical, small-molecule microarray, 635 nm fluorescence, primary screen (AID 1104);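 note: score merges 667 nm emission intensity with spot signal to noise over triplicate slides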
- Conditions used: EGFR binding, higher = more signal
Catalogue of composite z-score readings, one per entry.

Completed entries (count: 3):
{"columns": ["Smiles entry", "composite z-score"],
 "data": [
  ["COC(=O)[C@]1(Cc2ccccc2N=[N+]=[N-])N=C(c2ccc(OCCCO)cc2)O[C@@H]1c1ccccc1", -0.355],
  ["CC(C)CNC(=O)[C@@]1(c2ccc([N+](=O)[O-])cc2)CC(=O)N(C(C)C)[C@@H]1c1ccc(CO)cc1", -0.362],
  ["COC(=O)c1c(CC[C@@H](CO)NC(=O)N[C@@H](C)Cn2cc(C3(O)CCCC3)nn2)oc(C(C)=O)c1C(=O)OC", 0.0477]
]}

Query: Please give the measured composite z-score for this compound: COCCCNC(=O)[C@]1(Cc2ccccc2)N=C(c2ccc(OCCCO)cc2)O[C@@H]1c1ccccc1N=[N+]=[N-]
Reply: -0.184

---

- Measurement target: Fibroblast growth factor 10 (Homo sapiens) (UniProt O15520)
- Sequence (O15520 whole entry, looked up): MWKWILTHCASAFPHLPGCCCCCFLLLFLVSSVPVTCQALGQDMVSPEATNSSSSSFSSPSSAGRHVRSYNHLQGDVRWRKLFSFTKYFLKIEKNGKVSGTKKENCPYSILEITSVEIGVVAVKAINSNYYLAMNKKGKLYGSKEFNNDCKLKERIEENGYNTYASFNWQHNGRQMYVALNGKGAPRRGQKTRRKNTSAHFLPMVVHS
- Assay name: compounds binding fibroblast growth factor 10 – biochemical, small-molecule microarray, 635 nm fluorescence, primary screen (AID 1102)
- Conditions used: FGF10 binding, fluorescence 635 nm, higher = more signal
Output True for composite z-score not less than 1; output False otherwise.

Query: Evaluate COC(=O)C(CC#Cc1ccc2c(c1)[C@]1(C(=O)N2)[C@H](c2ccc(O)cc2)N2[C@H](c3ccccc3)[C@H](c3ccccc3)OC(=O)[C@H]2[C@@H]1C(N)=O)C(=O)OC : composite z-score at minimum 1?
Reply: False

Query: How about this compound: COCCOC(=O)N1C(=O)[C@@]2(c3cc(C#CCNC(N)=O)ccc31)[C@H](c1ccc(OCCO)cc1)N1[C@H](c3ccccc3)[C@H](c3ccccc3)OC(=O)[C@H]1[C@@H]2C(=O)N1CCN(c2ncccn2)CC1
Reply: True

Query: How about this compound: CC(C)C[C@H]1NC(=O)[C@H](C)NC(=O)[C@@]23C(=O)N[C@@H](Cc4ccccc4)C2[C@H](C)[C@@]2(C)O[C@H]2C3/C=C/C/C=C\CNC1=O (some centres undefined)
Reply: False

Query: How about this compound: [N-]=[N+]=Nc1ccccc1C[C@]1(C(=O)NCCN2CCOCC2)N=C(c2ccc(OCCCO)cc2)O[C@H]1c1ccccc1N=[N+]=[N-]
Reply: True

Query: How about this compound: COC(=O)[C@@]1(Cc2ccc(OC)cc2)[C@H]2c3cc(C(=O)N(C)C)n(Cc4cc(C)n(C)n4)c3C[C@H]2CN1C(=O)c1ccccc1
Reply: True

Query: How about this compound: O=C1O[C@H](c2ccccc2)[C@H](c2ccccc2)N2[C@H]1[C@@H](C(=O)N1CCCCCCC1)[C@]1(C(=O)Nc3ccc(C#CCCO)cc31)[C@H]2c1ccc(OCCO)cc1
Reply: True
